B1: PLAGL1 (parent)
chain: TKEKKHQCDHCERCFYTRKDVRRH

- Variants of: B1
- test_details: protein stability index of a GFP-peptide fusion (GPS, HEK-293T) (PSI 1-6); higher = more stable;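 further: lentivirally expressed fusions sorted by FACS into six bins by GFP to DsRed ratio, PSI derived from sequencing read proportions per bin multiplied by bin number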
- measurement_conditions: c terminus: a fixed tail appended
measure_name: protein stability index
Give bare numbers.

For orientation, consider the following solved cases.
{"mutation_id": "H6P", "measure_name": "protein stability index", "test_result": 2.94}
{"mutation_id": "R18M", "measure_name": "protein stability index", "test_result": 2.95}

Batch lookup, protein stability index per entry.
1. C11N
2. D9C
3. K4I
4. Y16C
5. C14H
6. K2R
7. K19I

Given back:
1. 3.39
2. 3.14
3. 3.57
4. 3.74
5. 3.12
6. 3.77
7. 2.52
